system: U2OS; experiment: Multiplex assay against U2OS; assay type: toxicity, cell-based; details: human, 24 h, 10 µM, compound concentration 10 uM, replicate 1
So basically, if Population Fragmented Nuclei (%) comes in under 10% it's condition met, and if it's 10% or more it's condition not met.

Consider COc1cccc2cc(-c3nc([C@H]4CC[C@H](C(=O)O)CC4)n4ncnc(N)c34)[nH]c12 . Does its Population Fragmented Nuclei (%) lie strictly below 10%?
condition met

Consider O=C1N/C(=N/c2ccccc2F)S/C1=C\c1ccc(C(=O)O)cc1 . Does its Population Fragmented Nuclei (%) lie strictly below 10%?
condition met

Consider O=C(Nc1ccc(-c2ccnc(Nc3ccc(N4CCOCC4)cc3)n2)cc1)[C@@H]1CCCN1 . Does its Population Fragmented Nuclei (%) lie strictly below 10%?
condition not met

Consider O=C(Nc1ccc(Cl)cc1)Nc1cccc(-c2cccc(N3CCCC3)n2)c1 . Does its Population Fragmented Nuclei (%) lie strictly below 10%?
condition not met

Consider COc1cc(N2CCN(C)CC2)ccc1Nc1ncc2c(n1)N(C)c1ccccc1C(=O)N2C . Does its Population Fragmented Nuclei (%) lie strictly below 10%?
condition not met

Consider CCCS(=O)(=O)Nc1ccc(F)c(C(=O)c2c[nH]c3ncc(Cl)cc23)c1F . Does its Population Fragmented Nuclei (%) lie strictly below 10%?
condition met

Consider CCCn1c(=O)c2[nH]c(-c3cnn(Cc4cccc(C(F)(F)F)c4)c3)nc2n(CC)c1=O . Does its Population Fragmented Nuclei (%) lie strictly below 10%?
condition not met

Consider CN1C2CCC1CC(OC(c1ccc(F)cc1)c1ccc(F)cc1)C2.Cl (stereo not given) . Does its Population Fragmented Nuclei (%) lie strictly below 10%?
condition not met

Consider S=C(NCCCc1c[nH]cn1)NCCCN(Cc1ccc(Cl)c(Cl)c1)c1ccc(Br)cn1 . Does its Population Fragmented Nuclei (%) lie strictly below 10%?
condition not met

Consider CCN1CCN(Cc2ccc(Nc3ncc(F)c(-c4cc(F)c5nc(C)n(C(C)C)c5c4)n3)nc2)CC1.CS(=O)(=O)O . Does its Population Fragmented Nuclei (%) lie strictly below 10%?
condition not met

Consider COc1ccc(-c2ccc3c(N4CCOCC4)nc(N4C[C@@H](C)O[C@@H](C)C4)nc3n2)cc1CO . Does its Population Fragmented Nuclei (%) lie strictly below 10%?
condition not met

Consider Cc1cc(C)c(S(=O)(=O)N(Cc2ccc(-c3cccc(S(C)(=O)=O)c3)cc2)Cc2ccc(C(F)(F)F)o2)c(C)c1 . Does its Population Fragmented Nuclei (%) lie strictly below 10%?
condition not met

Consider O=C(Nc1cccnn1)N1CCC(=Cc2cccc(Oc3ccc(C(F)(F)F)cn3)c2)CC1 . Does its Population Fragmented Nuclei (%) lie strictly below 10%?
condition met

Consider O=C1NC(=O)C(c2cnc3ccccn23)=C1c1cn2c3c(cc(F)cc13)CN(C(=O)N1CCCCC1)CC2 . Does its Population Fragmented Nuclei (%) lie strictly below 10%?
condition not met

Consider Cl.Oc1ccc2c3c1O[C@H]1c4[nH]c5c(c4C[C@@]4(O)[C@@H](C2)N(CC2CC2)CC[C@]314)C[C@@]1(O)[C@H]2Cc3ccc(O)c4c3[C@@]1(CCN2CC1CC1)[C@H]5O4 . Does its Population Fragmented Nuclei (%) lie strictly below 10%?
condition met

Consider C=CCn1c(=O)c2cnc(Nc3ccc(N4CCN(C)CC4)cc3)nc2n1-c1cccc(C(C)(C)O)n1 . Does its Population Fragmented Nuclei (%) lie strictly below 10%?
condition not met

Consider CN1CCN(C(=O)C(C)(C)c2ccc(C(=O)Nc3cn4cc(-c5cc(C(C)(C)C)cc(C(C)(C)C)c5)ccc4n3)cc2)CC1 . Does its Population Fragmented Nuclei (%) lie strictly below 10%?
condition met
